Target: HIS-TGFβR1 T204D (Homo sapiens (Human), UniProt P36897, T204D)
Sequence (P36897 34-503 T204D): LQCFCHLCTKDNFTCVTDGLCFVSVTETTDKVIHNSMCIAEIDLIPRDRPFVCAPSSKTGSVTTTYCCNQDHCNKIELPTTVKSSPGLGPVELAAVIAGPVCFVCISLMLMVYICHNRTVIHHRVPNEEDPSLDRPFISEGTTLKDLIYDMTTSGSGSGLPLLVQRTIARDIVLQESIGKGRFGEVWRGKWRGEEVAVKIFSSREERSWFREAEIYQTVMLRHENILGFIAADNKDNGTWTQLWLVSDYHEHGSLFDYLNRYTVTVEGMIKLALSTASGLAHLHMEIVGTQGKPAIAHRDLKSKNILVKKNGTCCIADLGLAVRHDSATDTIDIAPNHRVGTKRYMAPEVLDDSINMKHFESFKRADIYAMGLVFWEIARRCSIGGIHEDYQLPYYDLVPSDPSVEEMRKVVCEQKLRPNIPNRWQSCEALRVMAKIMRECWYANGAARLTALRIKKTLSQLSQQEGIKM
Assay: HTRF probe-displacement assay, HIS-TGFβR1 T204D
Conditions: 1 hour at room temperature
Catalogue of molecules with associated log10 IC50
Please keep in mind that the values are log10 of IC50 expressed in µM.

For reference, reported log10 IC50 for COc1cccc(-c2nc(Nc3ccncc3F)c3ccc(F)n3n2)n1 stands at -1.06

Lookup result for COc1cccc(-c2nc(Nc3ccncc3F)c3c(CCO)ccn3n2)n1 ; measured log10 IC50: -2.52

The reported value for O=C(NCc1nccs1)c1cnccc1Nc1nc(-c2cccc(C(F)F)n2)nn2cccc12 in terms of log10 IC50 is -1.36

Note to self: log10 IC50 recorded for O=C(NCCN1CCS(=O)(=O)CC1)c1cnccc1Nc1nc(-c2cccc(C(F)(F)F)n2)nn2cccc12 was -0.59

* * *

Target: HIS-TGFβR1 T204D (Homo sapiens (Human), UniProt P36897, T204D)
Test: HTRF probe-displacement assay, HIS-TGFβR1 T204D
Conditions: 1 hour at room temperature
# maps each entry to its pIC50
Schema: pIC50 number; meaning minus log10 of the concentration expressed in molar units.

Example entries begin here.
In [3]: df
Out[3]:
                                   compound  value_kind  assay_value
0  COc1cccc(-c2nc(Nc3ccnc(NCCN4CCC(O)CC4)c3)c3cccn3n2)n1       pIC50         6.15
1  FC(F)c1cccc(-c2nc(Nc3ccncc3Cl)c3cccn3n2)n1       pIC50         8.96
2     Fc1ccc(-c2nc(Nc3ccncc3F)c3cccn3n2)nc1       pIC50         9.10

Just so you know, measured pIC50 for Fc1ccc(-c2nc(Nc3ccncc3Cl)c3cccn3n2)nc1 came out at 9.23

pIC50 for COc1cccc(-c2nc(Nc3ccncc3F)c3c(C(C)(C)O)ccn3n2)n1 is 7.49

Form field pIC50, entry OC[C@@H](O)CNCc1ccn2nc(-c3ccccn3)nc(Nc3ccncc3F)c12 : 9.08

Noted for OC1CCC(NCc2ccn3nc(-c4ccccn4)nc(Nc4ccncc4F)c23)CC1 (centres unmarked) : its pIC50 reads 8.66

pIC50 recorded for this compound, O=C(NCCCN1CCOCC1)c1cnccc1Nc1nc(-c2cccc(C(F)(F)F)n2)nn2cccc12 , is 7.35

Lab book: pIC50 of Cc1nc(-c2nc(Nc3ccncc3Cl)c3cccn3n2)ccc1F noted as 9.09

Looking up Cc1cccc(-c2nc(Nc3ccncc3C(=O)NCCN3CCS(=O)(=O)CC3)c3cccn3n2)n1 , I found its pIC50 recorded as 7.66

Query CCOC(=O)CCNC(=O)c1cnccc1Nc1nc(-c2cccc(C(F)F)n2)nn2cccc12 yields pIC50 of 7.28

* * *

Molecular target: HIS-TGFβR1 T204D (Homo sapiens (Human), UniProt P36897, T204D)
Test: HTRF probe-displacement assay, HIS-TGFβR1 T204D
Settings: 1 hour at room temperature
Threshold 90 nM. IC50 below it: Satisfied. IC50 at it or above: Not satisfied.

A selection of reference data follows.
>>> df
                                   compound                              study_target       category
0  COc1cccc(-c2nc(Nc3ccncc3F)c3cc(NC(=O)CNS(C)(=O)=O)cn3n2)n1 [Example 110]  HIS-TGFβR1 T204D (Homo sapiens (Human), UniProt P36897, T204D)  Not satisfied
1  O=C(NC1CCOCC1)c1cnccc1Nc1nc(-c2cccc(C(F)F)n2)nn2cccc12 [Example 178]  HIS-TGFβR1 T204D (Homo sapiens (Human), UniProt P36897, T204D)  Not satisfied

Problem: Strictly below 90 nM: is that where IC50 of CCOc1cccc(-c2nc(Nc3ccncc3F)c3cccn3n2)n1 [Example 102] sits?
Solution: Satisfied

Problem: Does the reported IC50 of O=C(NCCC(F)(F)F)c1cnccc1Nc1nc(-c2cccc(C(F)F)n2)nn2cccc12 [Example 202] stay below 90 nM?
Solution: Not satisfied

Problem: Please state whether IC50 is below 90 nM for Cc1cccc(-c2nc(Nc3ccncc3C(=O)N(C)CCN(C)C)c3cccn3n2)n1 [Example 162]
Solution: Not satisfied

Problem: In the record for CC(C)(O)CNC(=O)c1cnccc1Nc1nc(-c2cccc(C(F)F)n2)nn2cccc12 [Example 188] , is IC50 less than 90 nM?
Solution: Satisfied

Problem: In plain terms, does COc1cccc(-c2nc(Nc3ccncc3NC(C)=O)c3cccn3n2)n1 [Example 47] come in under 90 nM for IC50?
Solution: Not satisfied

Problem: Identify whether the compound COCc1noc(CNC(=O)c2cnccc2Nc2nc(-c3cccc(C(F)F)n3)nn3cccc23)n1 [Example 205] records IC50 below 90 nM.
Solution: Satisfied

Problem: Hello, I'm reviewing records and need to know if IC50 of O[C@@H]1CCN(Cc2ccn3nc(-c4ccccn4)nc(Nc4ccncc4F)c23)C1 [Example 233] is below 90 nM. Could you check?
Solution: Satisfied

Problem: Report whether reported IC50 is lower than 90 nM (strictly) for CN1CCN(CCCNCc2ccn3nc(-c4ccccn4)nc(Nc4ccncc4F)c23)CC1 [Example 283]
Solution: Satisfied

Problem: Find out if reported IC50 for O=C(CCC(F)(F)F)Nc1cc(Nc2nc(-c3cccc(C(F)(F)F)n3)nn3cccc23)ccn1 [Example 337] is less than 90 nM
Solution: Satisfied

* * *

Biological target: HIS-TGFβR1 T204D (Homo sapiens (Human), UniProt P36897, T204D)
Test: HTRF probe-displacement assay, HIS-TGFβR1 T204D
Conditions: 1 hour at room temperature
Documented IC50 across a set of molecules
// return numeric value only (unit: nM, not printed)

// worked examples, IC50 included
                               smiles_entry  value_kind  unit_abbrev  assay_value
0  CN1CCC(CCNCc2ccn3nc(-c4ccccn4)nc(Nc4ccncc4F)c23)CC1        IC50           nM          5.4
1  Fc1cnccc1Nc1nc(-c2ccccn2)nn2ccc(CNCCN3CCCCC3)c12        IC50           nM          4.4
2  CS(=O)(=O)Nc1cc(Nc2nc(-c3cccc(C(F)(F)F)n3)nn3cccc23)ccn1        IC50           nM         4000

Now, please, on to the next molecule.
Recorded IC50 (molecule FC(F)(F)c1cccc(-c2nc(Nc3ccncn3)c3cccn3n2)n1 ): 28

* * *

Entries and their pIC50
Molecular target: HIS-TGFβR1 T204D (Homo sapiens (Human), UniProt P36897, T204D)
Test: HTRF probe-displacement assay, HIS-TGFβR1 T204D
Format: binding
Settings: 1 hour at room temperature
The meaning of pIC50 here: minus log10 of the concentration in molar units.

Per the record, CC(C)(C)OC(=O)CNC(=O)c1cnccc1Nc1nc(-c2cccc(C(F)F)n2)nn2cccc12 [Example 196] has pIC50 of 6.64

Looking up Fc1cnccc1Nc1nc(-c2ccccn2)nn2ccc(CN[C@H]3CCN(Cc4ccccc4)C3)c12 [Example 285] , I see its pIC50 listed as 8.92

* * *

Target: HIS-TGFβR1 T204D (Homo sapiens (Human), UniProt P36897, T204D)
Assay: HTRF probe-displacement assay, HIS-TGFβR1 T204D
Settings: 1 hour at room temperature
Form field: IC50 (one value per entry).
Number plus unit, in that order.

Take a look at these entries with their results.
                               smiles_entry  assay_value
0  CS(=O)(=O)Nc1cccc(-c2nc(Nc3ccncc3Cl)c3cccn3n2)n1       8.8 nM
1  Fc1cnccc1Nc1nc(-c2ccccn2)nn2ccc(CNCCCN3CCOCC3)c12       3.9 nM
2  COc1cccc(-c2nc(Nc3ccncc3F)c3cc(N)cn3n2)n1       140 nM

// Cc1csc(-c2nc(Nc3ccncc3)c3cccn3n2)n1 : IC50 value = 1.5 nM

IC50 measured on Fc1cnccc1Nc1nc(-c2cccc(OC(F)(F)F)n2)nn2cccc12 = 3 nM

response.value for Fc1cnccc1Nc1nc(-c2cccc(C(F)F)n2)nn2ccc(CN3CCC(F)(F)CC3)c12 (field: IC50) = 1.1 nM

Notebook: Cn1nccc1-c1nc(Nc2ccncc2F)c2cccn2n1 , IC50 read as 610 nM

* * *

Biological target: HIS-TGFβR1 T204D (Homo sapiens (Human), UniProt P36897, T204D)
Experiment: HTRF probe-displacement assay, HIS-TGFβR1 T204D
Settings: 1 hour at room temperature
Measured IC50 of individual entries
API: value field is a number in µM; no unit string.

>>> df
                               smiles_entry  unit_abbrev  assay_value
0  Cc1cccc(-c2nc(Nc3ccncc3)c3cc(C(=O)N(C)C)cn3n2)n1           µM         0.13

IC50 recorded for this molecule, COc1cccc(-c2nc(Nc3ccncc3F)c3cc(NC(=O)CNC(=O)OC(C)(C)C)cn3n2)n1 , is 0.33

Per the record, COc1cccc(-c2nc(Nc3ccnc(NCCC(C)(C)O)c3)c3cccn3n2)n1 has IC50 of 0.36

The molecule listed as COc1cccc(-c2nc(Nc3ccncc3C(N)=O)c3cccn3n2)n1 has a reported IC50 of 0.0091

// OCCN1CCN(Cc2ccn3nc(-c4cccc(C(F)F)n4)nc(Nc4ccncc4F)c23)CC1 : IC50 value = 0.0012

# IC50 (molecule: CN1CCC(OCc2ccn3nc(-c4ccccn4)nc(Nc4ccncc4F)c23)CC1 ) is 0.013

IC50 for Fc1cnccc1Nc1nc(-c2cccc(C(F)F)n2)nn2cccc12 is 0.00092

The molecule listed as CCCNC(=O)c1cnccc1Nc1nc(-c2cccc(C(F)F)n2)nn2cccc12 has a reported IC50 of 0.014

# molecule CN1CCN(Cc2ccn3nc(-c4cccc(C(F)(F)F)n4)nc(Nc4ccncc4F)c23)CC1 ; its IC50 = 0.032
